Target: TRIP8b(241-602)
Test: fluorescence polarisation
Ends that are not written are not given here.
ENDPOINT: Kd (nM)
Report as a plain number; the unit nM is understood.

Item under review: DAEKPRFASNL (also: FITC label, position not given here) [FITC labeled HCN1 peptide (C-terminal 11 amino acids of HCN1)] . Reported Kd? 800
